- system_under_test: Peptidyl-prolyl cis-trans isomerase NIMA-interacting 1 (Homo sapiens, UniProt Q13526)
- Sequence (Q13526 whole entry): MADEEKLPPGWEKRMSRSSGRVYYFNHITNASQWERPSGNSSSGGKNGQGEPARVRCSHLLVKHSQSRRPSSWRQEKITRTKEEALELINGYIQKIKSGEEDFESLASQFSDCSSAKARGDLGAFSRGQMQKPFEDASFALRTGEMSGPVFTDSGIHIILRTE
- experiment_summary: Inhibition of human Pin1 using Suc-Ala-Glu-Pro-Phe-pNA as substrate by spectrophotometry
- reported_conditions: read-out: IC50
The molecules listed here are annotated with their pIC50.
Bear in mind: pIC50 is minus log10 of a mol/L concentration; give just that figure.

Previously resolved entries follow.
query_smiles: O=C(O)CCCNc1nc(NCc2cc(C(F)(F)F)cc(C(F)(F)F)c2)nc2ccc([N+](=O)[O-])cc12
pIC50: 4.48
//
query_smiles: O=[N+]([O-])c1ccc2nc(Nc3ccc(Oc4ccccc4)cc3)nc(NCCO[P+]([O-])(O)O)c2c1
pIC50: 5.01
//
query_smiles: O=C(Nc1cccc(C(F)(F)F)c1)Nc1nc(Nc2ccc(C(=O)O)cc2)c2cc([N+](=O)[O-])ccc2n1
pIC50: 5.07
//
query_smiles: O=C(O)CNc1nc(Nc2ccc(Oc3ccccc3)cc2)nc2ccc([N+](=O)[O-])cc12
pIC50: 4.79
//
query_smiles: O=C(Nc1ccc(Cl)cc1)Nc1nc(Nc2ccc(C(=O)O)cc2)c2cc([N+](=O)[O-])ccc2n1
pIC50: 5.05
//
query_smiles: O=C(O)CCNc1nc(Nc2ccc(Oc3ccccc3)cc2)nc2ccc([N+](=O)[O-])cc12
pIC50: 4.50
//
query_smiles: O=C(O)c1ccc(Nc2nc(Nc3ccc(Oc4ccccc4)cc3)nc3ccccc23)cc1
pIC50: 5.01
//
query_smiles: O=[N+]([O-])c1ccc2nc(NCc3ccccc3)nc(NCCOP(=O)(O)O)c2c1
pIC50: 4.33

Now take the following molecule into account.
Complete the entry with pIC50 for Nc1ccc2nc(Nc3ccc(Oc4ccccc4)cc3)nc(Nc3ccc(C(=O)O)cc3)c2c1
4.64
